target: NMDA receptor histamine site (NMDA(HA)R), native NMDAR of rat hippocampal synaptosomes (Rattus norvegicus, UniProt P35439+Q00960); assay: tissue or organelle; settings: read-out: Intrinsec activity %
Sequence (Q00960 27-1482, other chains not shown): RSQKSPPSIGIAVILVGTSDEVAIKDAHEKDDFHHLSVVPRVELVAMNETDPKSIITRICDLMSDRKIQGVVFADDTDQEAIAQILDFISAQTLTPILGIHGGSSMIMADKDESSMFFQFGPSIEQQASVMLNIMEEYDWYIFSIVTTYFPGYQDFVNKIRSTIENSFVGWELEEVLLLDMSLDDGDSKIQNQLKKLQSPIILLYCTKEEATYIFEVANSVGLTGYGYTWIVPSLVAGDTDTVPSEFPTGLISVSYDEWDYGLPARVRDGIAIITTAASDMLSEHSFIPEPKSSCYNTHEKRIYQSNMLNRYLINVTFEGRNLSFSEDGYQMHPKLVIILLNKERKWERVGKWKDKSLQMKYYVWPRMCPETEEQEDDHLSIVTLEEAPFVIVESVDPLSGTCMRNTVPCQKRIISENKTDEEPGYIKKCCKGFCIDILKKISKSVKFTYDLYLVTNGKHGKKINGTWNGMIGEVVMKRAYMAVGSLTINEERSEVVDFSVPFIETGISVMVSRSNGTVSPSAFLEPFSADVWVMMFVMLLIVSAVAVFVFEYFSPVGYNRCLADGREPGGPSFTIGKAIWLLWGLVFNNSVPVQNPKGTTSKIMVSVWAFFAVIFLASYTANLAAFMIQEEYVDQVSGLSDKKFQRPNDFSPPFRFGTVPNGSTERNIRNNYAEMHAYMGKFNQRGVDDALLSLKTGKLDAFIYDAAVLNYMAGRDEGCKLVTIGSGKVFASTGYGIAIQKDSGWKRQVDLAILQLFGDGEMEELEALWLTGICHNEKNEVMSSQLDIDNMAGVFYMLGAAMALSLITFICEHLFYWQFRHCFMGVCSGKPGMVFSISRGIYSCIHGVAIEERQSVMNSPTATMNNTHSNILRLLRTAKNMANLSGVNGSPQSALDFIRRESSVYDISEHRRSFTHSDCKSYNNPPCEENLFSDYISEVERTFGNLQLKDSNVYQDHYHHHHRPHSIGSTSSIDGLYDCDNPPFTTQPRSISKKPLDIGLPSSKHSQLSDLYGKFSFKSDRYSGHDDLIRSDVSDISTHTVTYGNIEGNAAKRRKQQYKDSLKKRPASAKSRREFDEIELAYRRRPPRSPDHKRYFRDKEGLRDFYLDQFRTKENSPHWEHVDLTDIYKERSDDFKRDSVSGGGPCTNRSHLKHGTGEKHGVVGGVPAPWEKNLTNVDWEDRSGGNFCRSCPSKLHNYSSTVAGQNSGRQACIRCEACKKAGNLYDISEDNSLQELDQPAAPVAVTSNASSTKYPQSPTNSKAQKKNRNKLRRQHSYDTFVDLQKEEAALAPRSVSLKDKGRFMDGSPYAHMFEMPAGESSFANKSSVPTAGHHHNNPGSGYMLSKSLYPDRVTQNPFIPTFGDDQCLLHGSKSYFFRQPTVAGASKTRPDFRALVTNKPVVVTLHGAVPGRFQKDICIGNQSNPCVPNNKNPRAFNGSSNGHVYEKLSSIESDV
outcome.measure: Emax (%)
Report the value in % with no unit label.

Nc1nc(C2CCCC(N)C2)cs1 (centres unmarked); 38
Nc1nc(C2CCC(N)CC2)c[se]1 (centres unmarked); 33

Sample Nc1nc(C2CCC(N)CC2)cs1 (centres unmarked) ; Emax observed: 40

According to the records, this compound `NCCCCCc1cnc(N)s1` displays Emax of 41

Summary for this compound, `NCCCCc1cnc(N)s1` : Emax is 81

Values were extracted from paper doi:10.1101/2024.03.08.583891v2.
